# assay: Hemolytic activity
# Format: cell-based, human
# measurement_conditions: 400 µg/mL, 60 min, 37 °C, 1% red blood cell suspension
reported_property: hemolysis

Item under review: NCCCC[C@H](NC(=O)CCN(CC1CCCCC1)C(=O)[C@H](CCCCN)NC(=O)CCN(CC1CCCCC1)C(=O)[C@H](CCCCN)NC(=O)CCN(CC1CCCCC1)C(=O)[C@H](CCCCN)NC(=O)CCN(CC1CCCCC1)C(=O)[C@H](CCCCN)NC(=O)CCN(CC1CCCCC1)C(=O)[C@H](CCCCN)NC(=O)CCN(CC1CCCCC1)C(=O)[C@H](CCCCN)NC(=O)CCN(CC1CCCCC1)C(=O)[C@@H](N)CCCCN)C(=O)N(CCC(N)=O)CC1CCCCC1 [Compound 9, H-[Lys-βNCha]8-NH2] . Reported hemolysis?
> 20%

----------
# assay: Hemolytic activity
# Assay type: cell-based, human
# measurement_conditions: human, human red blood cells (washed, 1% suspension), 37 °C, 1% red blood cell suspension
reported_property: hemolysis at 60 min, 400 µg/mL

Item under review: CCCCCCCC(=O)N[C@@H](CCCCN)C(=O)N(CCC(=O)N[C@@H](CCCCN)C(=O)N(CCC(=O)N[C@@H](CCCCN)C(=O)N(CCC(=O)N[C@@H](CCCCN)C(=O)N(CCC(=O)N[C@@H](CCCCN)C(=O)N(CCC(=O)N[C@@H](CCCCN)C(=O)N(CCC(N)=O)[C@@H](C)c1ccccc1)[C@@H](C)c1ccccc1)[C@@H](C)c1ccccc1)[C@@H](C)c1ccccc1)[C@@H](C)c1ccccc1)[C@@H](C)c1ccccc1 [Compound 10, Oct-[Lys-βNspe]6-NH2] . Reported hemolysis at 60 min, 400 µg/mL?
< 10%

Now turn to the next compound.
Item under review: CC(=O)N[C@@H](CCCCNC(=N)N)C(=O)N(CCC(=O)N[C@@H](CCCCNC(=N)N)C(=O)N(CCC(=O)N[C@@H](CCCCNC(=N)N)C(=O)N(CCC(=O)N[C@@H](CCCCNC(=N)N)C(=O)N(CCC(=O)N[C@@H](CCCCNC(=N)N)C(=O)N(CCC(=O)N[C@@H](CCCCNC(=N)N)C(=O)N(CCC(=O)N[C@@H](CCCCNC(=N)N)C(=O)N(CCC(=O)N[C@@H](CCCCNC(=N)N)C(=O)N(CCC(N)=O)Cc1ccccc1)Cc1ccccc1)Cc1ccccc1)Cc1ccccc1)Cc1ccccc1)Cc1ccccc1)Cc1ccccc1)Cc1ccccc1 [Compound 1, Ac-[hArg-βNPhe]8-NH2] . Reported hemolysis at 60 min, 400 µg/mL?
~6%

----------
Task for the reader: assign each of the following molecules its reported Minimum inhibitory concentration.
# System: E. faecium 2961
# assay: microbe, parasite or virus in culture
# Assay type: cell-based, Enterococcus faecium
# measurement_conditions: 2961, 24 h
Numbers only, in µg/mL.

Solved cases below.
Item under review: CCCCCCCC(=O)N[C@@H](CCCCN)C(=O)N(CCC(=O)N[C@@H](CCCCN)C(=O)N(CCC(=O)N[C@@H](CCCCN)C(=O)N(CCC(=O)N[C@@H](CCCCN)C(=O)N(CCC(=O)N[C@@H](CCCCN)C(=O)N(CCC(=O)N[C@@H](CCCCN)C(=O)N(CCC(N)=O)[C@@H](C)c1ccccc1)[C@@H](C)c1ccccc1)[C@@H](C)c1ccccc1)[C@@H](C)c1ccccc1)[C@@H](C)c1ccccc1)[C@@H](C)c1ccccc1 [Compound 10, Oct-[Lys-βNspe]6-NH2] . Reported Minimum inhibitory concentration?
4

Item under review: C[C@@H](c1ccccc1)N(CCC(=O)N[C@@H](CCCCN)C(=O)N(CCC(=O)N[C@@H](CCCCNC(=N)N)C(=O)N(CCC(=O)N[C@@H](CCCCN)C(=O)N(CCC(=O)N[C@@H](CCCCNC(=N)N)C(=O)N(CCC(=O)N[C@@H](CCCCN)C(=O)N(CCC(N)=O)[C@@H](C)c1ccccc1)[C@@H](C)c1ccccc1)[C@@H](C)c1ccccc1)[C@@H](C)c1ccccc1)[C@@H](C)c1ccccc1)C(=O)[C@H](CCCCNC(=N)N)NC(=O)C=Cc1ccccc1 [Compound 6, Cinn-[hArg-βNspe-Lys-βNspe]3-NH2] . Reported Minimum inhibitory concentration?
4

Item under review: C[C@@H](c1ccccc1)N(CCC(N)=O)C(=O)[C@H](CCCCN)NC(=O)CCN(C(=O)[C@H](CCCCNC(=N)N)NC(=O)CCN(C(=O)[C@H](CCCCN)NC(=O)CCN(C(=O)[C@H](CCCCNC(=N)N)NC(=O)CCN(C(=O)[C@H](CCCCN)NC(=O)CCN(C(=O)[C@H](CCCCNC(=N)N)NC(=O)CNCCCNCCCCNCCCN)[C@@H](C)c1ccccc1)[C@@H](C)c1ccccc1)[C@@H](C)c1ccccc1)[C@@H](C)c1ccccc1)[C@@H](C)c1ccccc1 [Compound 3, SpermineAc-[hArg-βNspe-Lys-βNspe]3-NH2] . Reported Minimum inhibitory concentration?
8

Now turn to the next molecule.
Item under review: CC(=O)N[C@@H](CCCCNC(=N)N)C(=O)N(CCC(=O)N[C@@H](CCCCN)C(=O)N(CCC(=O)N[C@@H](CCCCNC(=N)N)C(=O)N(CCC(=O)N[C@@H](CCCCN)C(=O)N(CCC(=O)N[C@@H](CCCCNC(=N)N)C(=O)N(CCC(=O)N[C@@H](CCCCN)C(=O)N(CCC(N)=O)[C@@H](C)c1ccccc1)[C@@H](C)C1CCCCC1)[C@@H](C)c1ccccc1)[C@@H](C)C1CCCCC1)[C@@H](C)c1ccccc1)[C@@H](C)C1CCCCC1 [Compound 5, Ac-[hArg-βNsce-Lys-βNspe]3-NH2] . Reported Minimum inhibitory concentration?
2
